# target under test: α-glucosidase (Saccharomyces cerevisiae)
# assay details: biochemical
# Type: biochemical
# conditions: IC50 (α-glucosidase inhibitory activity), yeast form of α-glucosidase; mean ± S.E. of at least three different experiments
Kindly supply the reported IC50 values for the records listed here.
// note: answer is a bare numeric in µM

Identify measured IC50 corresponding to Cc1cccc(NC(=O)Cn2cc(CNC(=O)c3nc4ccccc4[nH]3)nn2)c1
49

Identify measured IC50 corresponding to O=C(Cn1cc(CNC(=O)c2nc3ccccc3[nH]2)nn1)Nc1ccc(Cl)cc1
134

Identify measured IC50 corresponding to O=C(Cn1cc(CNC(=O)c2nc3ccccc3[nH]2)nn1)Nc1ccc(Br)cc1
184

----------
# target under test: α-glucosidase (Saccharomyces cerevisiae, UniProt P53341)
# Sequence (P53341 whole entry): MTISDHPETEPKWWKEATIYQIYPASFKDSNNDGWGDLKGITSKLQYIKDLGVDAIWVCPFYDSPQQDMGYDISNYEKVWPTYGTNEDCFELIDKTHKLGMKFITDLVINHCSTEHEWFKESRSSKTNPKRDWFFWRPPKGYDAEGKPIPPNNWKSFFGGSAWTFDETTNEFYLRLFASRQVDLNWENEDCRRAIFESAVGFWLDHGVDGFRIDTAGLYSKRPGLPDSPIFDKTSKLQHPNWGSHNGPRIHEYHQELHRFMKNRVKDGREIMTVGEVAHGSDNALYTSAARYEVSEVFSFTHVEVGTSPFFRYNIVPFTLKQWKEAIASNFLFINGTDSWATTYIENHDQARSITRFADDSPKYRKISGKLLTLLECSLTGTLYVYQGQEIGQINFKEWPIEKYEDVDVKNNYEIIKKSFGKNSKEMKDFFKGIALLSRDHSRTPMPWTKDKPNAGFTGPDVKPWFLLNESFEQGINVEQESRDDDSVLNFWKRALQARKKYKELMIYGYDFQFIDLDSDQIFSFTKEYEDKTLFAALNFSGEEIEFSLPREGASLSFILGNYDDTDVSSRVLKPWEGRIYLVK
# assay details: biochemical
# Type: biochemical
# conditions: yeast form of α-glucosidase; mean ± S.E. of at least three different experiments; read-out: IC50 (α-glucosidase inhibitory activity)
Kindly supply the reported pIC50 values for the records listed here.
// pIC50 here means minus log10 of the molar concentration (mol/L)

Given Cc1cccc(NC(=O)Cn2cc(CNC(=O)c3nc4ccccc4[nH]3)nn2)c1C [8e] , report its pIC50 on α-glucosidase (Saccharomyces cerevisiae, UniProt P53341).
3.92

Given Cc1cccc(C)c1NC(=O)Cn1cc(CNC(=O)c2nc3ccccc3[nH]2)nn1 [8g] , report its pIC50 on α-glucosidase (Saccharomyces cerevisiae, UniProt P53341).
3.90

Given Cc1ccc(NC(=O)Cn2cc(CNC(=O)c3nc4ccccc4[nH]3)nn2)c(C)c1 [8f] , report its pIC50 on α-glucosidase (Saccharomyces cerevisiae, UniProt P53341).
3.37

Given CCc1ccc(NC(=O)Cn2cc(CNC(=O)c3nc4ccccc4[nH]3)nn2)cc1 [8h] , report its pIC50 on α-glucosidase (Saccharomyces cerevisiae, UniProt P53341).
3.60

Given O=C(Cn1cc(CNC(=O)c2nc3ccccc3[nH]2)nn1)Nc1ccc(Cl)cc1Cl [8l] , report its pIC50 on α-glucosidase (Saccharomyces cerevisiae, UniProt P53341).
3.17

----------
measured quantity: melting point

Identify measured melting point corresponding to COc1ccc(NC(=O)Cn2cc(CNC(=O)c3nc4ccccc4[nH]3)nn2)cc1
235 to 237 °C

Identify measured melting point corresponding to Cc1ccc(NC(=O)Cn2cc(CNC(=O)c3nc4ccccc4[nH]3)nn2)cc1
209 to 211 °C

Identify measured melting point corresponding to O=C(Cn1cc(CNC(=O)c2nc3ccccc3[nH]2)nn1)Nc1ccc(Br)cc1
227 to 229 °C

Identify measured melting point corresponding to O=C(Cn1cc(CNC(=O)c2nc3ccccc3[nH]2)nn1)Nc1ccc([N+](=O)[O-])cc1
259 to 261 °C

Identify measured melting point corresponding to Cc1ccc(NC(=O)Cn2cc(CNC(=O)c3nc4ccccc4[nH]3)nn2)c(C)c1
226 to 228 °C

Identify measured melting point corresponding to O=C(Cn1cc(CNC(=O)c2nc3ccccc3[nH]2)nn1)Nc1ccc(Cl)cc1Cl
247 to 249 °C

Identify measured melting point corresponding to O=C(Cn1cc(CNC(=O)c2nc3ccccc3[nH]2)nn1)Nc1ccc(F)cc1
245 to 247 °C

----------
measured quantity: melting point

Identify measured melting point corresponding to Cc1cccc(C)c1NC(=O)Cn1cc(CNC(=O)c2nc3ccccc3[nH]2)nn1
222 to 224 °C

Identify measured melting point corresponding to Cc1cccc(NC(=O)Cn2cc(CNC(=O)c3nc4ccccc4[nH]3)nn2)c1C
216 to 218 °C

Identify measured melting point corresponding to CCc1ccc(NC(=O)Cn2cc(CNC(=O)c3nc4ccccc4[nH]3)nn2)cc1
213 to 215 °C

Identify measured melting point corresponding to Cc1cccc(NC(=O)Cn2cc(CNC(=O)c3nc4ccccc4[nH]3)nn2)c1
206 to 208 °C

Identify measured melting point corresponding to O=C(Cn1cc(CNC(=O)c2nc3ccccc3[nH]2)nn1)Nc1ccc(Cl)cc1
236 to 238 °C
